assayDetails: Plasma PK of Compound A after a single 9-hour IV infusion in sleep-deprived healthy male subjects
Type: in vivo, human
condition: male, human, plasma, iv, 112 mg, 112 mg 9-h IV infusion; 4 h post infusion end; read-out: Plasma concentration (Median)

compound	valueUnit	concentration at 4 h
COC(=O)N1CCC[C@H](NS(C)(=O)=O)[C@@H]1CO[C@H]1CC[C@@H](c2ccccc2)CC1 [Compound A]	ng/mL	44.7

====

assayDetails: Multiple-dose plasma PK of IV Compound A in patients with NT2
Format: in vivo, human
condition: human, plasma, intravenous, 112 mg, Cmpd A 112 mg; Day 1; read-out: AUClast Mean

compound	valueUnit	AUC(0-t)
COC(=O)N1CCC[C@H](NS(C)(=O)=O)[C@@H]1CO[C@H]1CC[C@@H](c2ccccc2)CC1 [Compound A]	ng·h/mL	1520

====

assayDetails: Plasma PK of Compound A after a single 9-hour IV infusion in sleep-deprived healthy male subjects
Format: in vivo, human
condition: male, human, plasma, iv, 112 mg, 112 mg [HD] single 9-hour IV infusion; read-out: AUClast (Mean)
endpoint: AUC(0-t) (ng·h/mL)

moleculeSmiles	val
COC(=O)N1CCC[C@H](NS(C)(=O)=O)[C@@H]1CO[C@H]1CC[C@@H](c2ccccc2)CC1	2300

====

assayDetails: Plasma PK of Compound A after a single 9-hour IV infusion in sleep-deprived healthy male subjects
Type: in vivo, human
condition: male, human, plasma, iv, 112 mg, 112 mg [HD] single 9-hour IV infusion; read-out: CL (Median) (converted)

molecule	clearance [mL/min]
COC(=O)N1CCC[C@H](NS(C)(=O)=O)[C@@H]1CO[C@H]1CC[C@@H](c2ccccc2)CC1 [Compound A]	785

====

assayDetails: Plasma PK of Compound A after a single 9-hour IV infusion in sleep-deprived healthy male subjects
Format: in vivo, human
condition: male, human, plasma, iv, 44 mg, 44 mg [LD] single 9-hour IV infusion; read-out: AUClast (GM)

moleculeSmiles	AUC(0-t)
COC(=O)N1CCC[C@H](NS(C)(=O)=O)[C@@H]1CO[C@H]1CC[C@@H](c2ccccc2)CC1	933 ng·h/mL

====

assayDetails: Multiple-dose plasma PK of IV Compound A in patients with NT2
Format: in vivo, human
condition: human, plasma, intravenous, 112 mg, Cmax Geo Mean, Cmpd A 112 mg; Day 7
endpoint: Cmax (ng/mL)

compound	val
COC(=O)N1CCC[C@H](NS(C)(=O)=O)[C@@H]1CO[C@H]1CC[C@@H](c2ccccc2)CC1 [Compound A]	172

====

assayDetails: Plasma PK of Compound A after a single 9-hour IV infusion in sleep-deprived healthy male subjects
Format: in vivo, human
condition: male, human, plasma, iv, 112 mg, 112 mg [HD] single 9-hour IV infusion; read-out: AUC∞ (Mean)

moleculeSmiles	valueUnit	AUC(0-inf)
COC(=O)N1CCC[C@H](NS(C)(=O)=O)[C@@H]1CO[C@H]1CC[C@@H](c2ccccc2)CC1	ng·h/mL	2370
